test system: HIV with mutations in the HIV protease sequence; assay: Phenotypic fold resistance to protease inhibitors, protease mutations 84A/84L/84C/54M/54L/54V in a background (Examples 8-13); assay type: cell-based, HIV-1; conditions: Table 12, V052943, genotype 10I + 90M

MOLECULE	Fold change in IC50, fold
CC(C)CN(C[C@@H](O)[C@H](Cc1ccccc1)NC(=O)O[C@H]1CCOC1)S(=O)(=O)c1ccc(N)cc1 [Amprenavir, amprenavir]	0.4
CC(C)(C)NC(=O)[C@@H]1CN(Cc2cccnc2)CCN1C[C@@H](O)C[C@@H](Cc1ccccc1)C(=O)N[C@H]1c2ccccc2C[C@H]1O [Indinavir, indinavir]	0.5
CC(C)(C)NC(=O)[C@@H]1C[C@@H]2CCCC[C@@H]2CN1C[C@@H](O)[C@H](Cc1ccccc1)NC(=O)[C@H](CC(N)=O)NC(=O)c1ccc2ccccc2n1 [Saquinavir, saquinavir]	1.1
CC(C)c1nc(CN(C)C(=O)N[C@H](C(=O)N[C@@H](Cc2ccccc2)C[C@H](O)[C@H](Cc2ccccc2)NC(=O)OCc2cncs2)C(C)C)cs1 [Ritonavir, ritonavir]	1.8
Cc1c(O)cccc1C(=O)N[C@@H](CSc1ccccc1)[C@H](O)CN1C[C@H]2CCCC[C@H]2C[C@H]1C(=O)NC(C)(C)C [Nelfinavir, nelfinavir]	2.2

###

system: HIV with mutations in the HIV protease sequence; experiment: Phenotypic fold resistance to protease inhibitors, protease mutations 84A/84L/84C/54M/54L/54V in a background (Examples 8-13); assay type: cell-based, HIV-1; conditions: Table 13, V052968, genotype 10L/I + 33F/L + 54L + 77I
Measured Fold change in IC50, listed per entry for reference.
PROPERTY LABEL: Fold change in IC50 (fold)

>>> df
                                smiles_repr                     target_or_test_system       property_label  meas_value
0  CC(C)CN(C[C@@H](O)[C@H](Cc1ccccc1)NC(=O)O[C@H]1CCOC1)S(=O)(=O)c1ccc(N)cc1  HIV with mutations in the HIV protease sequence  Fold change in IC50         2.9
1  CC(C)(C)NC(=O)[C@@H]1C[C@@H]2CCCC[C@@H]2CN1C[C@@H](O)[C@H](Cc1ccccc1)NC(=O)[C@H](CC(N)=O)NC(=O)c1ccc2ccccc2n1  HIV with mutations in the HIV protease sequence  Fold change in IC50         1.5
2  CC(C)(C)NC(=O)[C@@H]1CN(Cc2cccnc2)CCN1C[C@@H](O)C[C@@H](Cc1ccccc1)C(=O)N[C@H]1c2ccccc2C[C@H]1O  HIV with mutations in the HIV protease sequence  Fold change in IC50         1.3
3  Cc1c(O)cccc1C(=O)N[C@@H](CSc1ccccc1)[C@H](O)CN1C[C@H]2CCCC[C@H]2C[C@H]1C(=O)NC(C)(C)C  HIV with mutations in the HIV protease sequence  Fold change in IC50         3.5
4  CC(C)c1nc(CN(C)C(=O)N[C@H](C(=O)N[C@@H](Cc2ccccc2)C[C@H](O)[C@H](Cc2ccccc2)NC(=O)OCc2cncs2)C(C)C)cs1  HIV with mutations in the HIV protease sequence  Fold change in IC50         4.7

###

test system: HIV with mutations in the HIV protease sequence; test: Phenotypic fold resistance to protease inhibitors, protease mutations 84A/84L/84C/54M/54L/54V in a background (Examples 8-13); type: cell-based, HIV-1; conditions: Table 13, V030496, genotype 10I + 77I
PROPERTY LABEL: Fold change in IC50 (fold)

>>> print(df.to_string())
                                smiles_repr  units_text  meas_value
0  CC(C)(C)NC(=O)[C@@H]1C[C@@H]2CCCC[C@@H]2CN1C[C@@H](O)[C@H](Cc1ccccc1)NC(=O)[C@H](CC(N)=O)NC(=O)c1ccc2ccccc2n1        fold         0.3
1  CC(C)CN(C[C@@H](O)[C@H](Cc1ccccc1)NC(=O)O[C@H]1CCOC1)S(=O)(=O)c1ccc(N)cc1        fold         0.5
2  Cc1c(O)cccc1C(=O)N[C@@H](CSc1ccccc1)[C@H](O)CN1C[C@H]2CCCC[C@H]2C[C@H]1C(=O)NC(C)(C)C        fold         0.7
